pKi data for μ-opioid receptor (Rattus norvegicus, UniProt P33535) follow.
// scale note: pKi = -log10(conc_M); give the bare number

Molecule	Assayed target	pKi
CCCN1CCC(N(Cc2cccc(OC)c2)c2ccc(C(=O)N(CC)CC)cc2)CC1 [Compound 1]	μ-opioid receptor (Rattus norvegicus, UniProt P33535)	5.03

Entry under test: CCN(CC)C(=O)c1ccc(N(Cc2ccccc2)C2CCN(C(C)C)CC2)cc1 [Compound 10] . Its pKi was 5.42

###

Listed next: entries and their corresponding MAIT % Inhibition @150 μmol/kg.
Test system: acetylcholine bromide-induced abdominal constriction
Study conditions: mouse, in vivo
Unit % implied. Number only.

Smiles structure	Unit spec	MAIT % Inhibition @150 μmol/kg
CCCN1CCC(N(Cc2cccc(O)c2)c2ccc(C(=O)N(CC)CC)cc2)CC1	%	13.3

Lab book: MAIT % Inhibition @150 μmol/kg of C=CCN1CCC(N(Cc2ccccc2)c2ccc(C(=O)N(CC)CC)cc2)CC1 noted as 84.6

# MAIT % Inhibition @150 μmol/kg (compound: CCN(CC)C(=O)c1ccc(N(Cc2ccccc2)C2CCNCC2)cc1 ) is 33.3

Looking up CCCN1CCC(N(Cc2ccccc2)c2ccc(C(=O)N(CC)CC)cc2)CC1 , I found its MAIT % Inhibition @150 μmol/kg recorded as 100
